- System: CCRF-CEM leukemia
- test_details: NCI tumour cell line growth inhibition, 48 h; in the data active = GI50 below about 0.43 µM; inactive = the rest
Hi! Could you answer with just one of these? active, inactive

CC(=O)[CH-]C(C)=O.CC(=O)[CH-]C(C)=O.N=CC=N.[Sn+2]: inactive
CCCSc1cc(Cl)nc(N)n1: inactive
CNC(=O)c1cc(Oc2ccc(NC(=O)Nc3ccc(Cl)c(OC(F)(F)F)c3)c(F)c2)ccn1: inactive
Cc1ccc(-c2nc(C(Cl)Cl)n3nc(-c4ccccc4)cc3n2)cc1: inactive
CNC(=O)c1ccc(-c2cnc3ncc(Cc4ccc5ncccc5c4)n3n2)cc1F: inactive
CN(C)c1nc(-c2cccs2)n2nc(-c3ccc(Cl)cc3)cc2n1: inactive
FC(F)(F)c1ccc2c(Nc3cccc(C4CC(c5ccccc5)=NN4c4ccc(Cl)cc4)c3)ccnc2c1 (stereo not given): inactive
Oc1ccc(Cc2ccccc2)c2cccnc12: active
CC(=O)n1c(-c2ccc(Cl)cc2)nc2c(c1=O)C(c1ccc(Cl)cc1)c1sc3c(Cl)cccc3c1O2 (stereo not given): active

// switching to the query compound
input: Please let me know the test result on file for `COc1ccc(-c2cc(-c3cc(Cl)ccc3Cl)nc3nc(=S)[nH]c(N)c23)cc1` .
output: inactive

---

Record form. Attribute: TGI. Fill in for each entry.
- System: CCRF-CEM leukemia
- test_details: NCI tumour cell line growth inhibition, 48 h

NCCN1CCN(c2nccc(-c3ccc4ccccc4c3)n2)CC1: 4.37 µM
CC[P+](C#Cc1ccccc1)(c1ccccc1)c1ccccc1: 1.69 µM
COc1ccc(/C=N/Nc2nc3ccccc3c(=O)n2-c2ccccc2)c(OCc2ccccc2)c1: > 100 µM
Cc1sc(C)c(-c2ccc(CO)o2)c1-c1ccc(CO)o1: > 100 µM
COC(=O)C(Cc1ccccc1)N/C=C\C(=O)c1ccc(Cl)cc1 (stereo not given): > 100 µM
NC1=NC(=O)C(CC(=O)Nc2ccc([N+](=O)[O-])cc2[N+](=O)[O-])S1 (stereo not given): > 100 µM
CCc1cc(=O)n(/C(C)=C/c2ccccc2)n1C: > 100 µM
O=C(NCCCNCCCCNCCCNC(=O)C(F)(F)F)C(F)(F)F: > 100 µM

Here are 2 molecules. What values of TGI were reported for them?
1. COC(=O)C1=C(C(=O)OC)C2(C)CCC(=O)C1O2 (stereo not given)
2. C[C@H]1CCC/C=C/[C@@H]2C[C@H](N)C[C@H]2[C@H](O)/C=C/C(=O)O1

output:
["> 10 µM", "> 100 µM"]

---

Please provide measured TGI for the entries that follow.
- Tested on: A549 NSCLC
- test_details: NCI tumour cell line growth inhibition, 48 h

// worked examples, TGI included
COC(=O)c1c(O)ccc2[nH]c(C)c(C#N)c12: > 100 µM
CCOC(=O)C1=C(C)NC(=O)N([N+](=O)[O-])C1c1ccccc1C(F)(F)F (stereo not given): > 100 µM
Cc1ncc(NC(=O)c2ccc(CN3CCN(C)CC3)c(C(F)(F)F)c2)cc1Nc1nccc(-c2cccnc2)n1: 31.5 µM

Quick request: TGI for each listed item, please.
1. NS(=O)(=O)c1ccc(NC(=O)c2cccc3c(=O)c4ccccc4[nH]c23)cc1
2. CCC1C(=O)OCc2c1cc1n(c2=O)CCC12OCCO2 (stereo not given)

output:
1: > 100 µM; 2: > 100 µM
